System: L1210 lymphoblastic leukemia cells
Experiment: Inhibition of L1210 tumor cell growth in vitro (Coulter counter)
Assay type: cell-based, Murine
Conditions: Mus musculus, L1210, 48 h; 2 days
metric_name: IC50 (nM)

O=c1oc(-c2cccnc2)cc2c1C=C1CCCCC1O2 (stereo not shown) = 2000

====

Let's look at some compounds and their measured Ki.
Target: acetylcholinesterase (AChE) (UniProt O42275)
Sequence (O42275 whole entry): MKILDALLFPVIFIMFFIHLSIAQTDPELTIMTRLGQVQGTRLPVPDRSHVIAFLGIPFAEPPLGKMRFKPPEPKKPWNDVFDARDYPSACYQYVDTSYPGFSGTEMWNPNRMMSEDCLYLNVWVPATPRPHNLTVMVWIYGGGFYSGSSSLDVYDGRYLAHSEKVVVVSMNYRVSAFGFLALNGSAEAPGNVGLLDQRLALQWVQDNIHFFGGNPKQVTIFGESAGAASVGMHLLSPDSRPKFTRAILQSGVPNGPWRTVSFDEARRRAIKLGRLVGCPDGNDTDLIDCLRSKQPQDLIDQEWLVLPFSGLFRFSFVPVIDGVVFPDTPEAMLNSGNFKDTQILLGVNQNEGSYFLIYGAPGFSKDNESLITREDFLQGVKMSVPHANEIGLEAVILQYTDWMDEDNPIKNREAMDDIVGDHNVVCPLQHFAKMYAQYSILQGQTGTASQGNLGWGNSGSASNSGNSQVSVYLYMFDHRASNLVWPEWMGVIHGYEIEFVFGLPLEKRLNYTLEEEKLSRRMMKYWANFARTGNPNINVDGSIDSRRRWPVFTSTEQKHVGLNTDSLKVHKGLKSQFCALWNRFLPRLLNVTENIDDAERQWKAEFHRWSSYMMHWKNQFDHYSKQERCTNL
Details: read-out: AChE inhibition constant Ki ± std. error; 30° C., pH 8.0
metric_name: Ki (µM)

CC12Oc3cc(-c4cccnc4)oc(=O)c3C=C1CCCC2OC=O (centres unmarked) = 26
CC12Oc3cc(-c4cccnc4)oc(=O)c3C=C1CCCC2O (centres unmarked) = 8
Cc1cc2c(c(=O)o1)C=C1CCCC(OC=O)C1(C)O2 (centres unmarked) = 5
COc1ccc(-c2cc3c(c(=O)o2)C=C2CCCCC2O3)cc1OC (centres unmarked) = 23
COc1ccc(-c2cc3c(c(=O)o2)C=C2CCCC(OC=O)C2(C)O3)cc1OC (centres unmarked) = 15

====

System: liver and intestinal microsomal ACAT
Construct: other: 100 μM; other: 44 nM; other: 50 μM
Experiment: Inhibition of liver and intestinal microsomal ACAT activity
Format: biochemical
Conditions: 100 μM
Let's look at some compounds and their measured % Inhibition of ACAT.
metric_name: % Inhibition of ACAT

CCCCC(=O)OCC(C)[C@H]1CCC2C(O)c3c(cc(-c4ccc(OC)c(OC)c4)oc3=O)O[C@H]2C1 (stereo partly drawn) [Compound 37] = 52.4%
Cc1cc2ncc3c(c2c(=O)o1)CCCC3 [Compound 26] = 13.7%
C=C(C)[C@H]1CCC2=Cc3c(cc(-c4ccc(OC)c(OC)c4)oc3=O)OC2C1 (stereo partly drawn) [Compound 30] = 21.9%
O=C(CCCCC(=O)Cc1cc2c(c(=O)o1)C=C1CCCCC1O2)Cc1cc2c(c(=O)o1)C=C1CCCCC1O2 (stereo not drawn) [Compound 33] = 76%
O=C(O)Cc1cc2c(c(=O)o1)C=C1CCCCC1O2 (stereo not drawn) [Compound 32] = 7.9%
O=c1oc(-c2cccnc2)cc2c1[C@@H](O)[C@@]1(O)CCCC[C@@H]1O2 (relative stereo) [Compound 38B] = 11.4%
C=C(C)[C@H]1CCC2=Cc3c(cc(C)oc3=O)O[C@H]2C1 [Compound 28] = 30%
C=C(C)[C@H]1CCC2=Cc3c(cc(-c4cccnc4)oc3=O)O[C@H]2C1 [Compound 29] = 39%
O=c1occc2nc3c(cc12)CCCC3 [Compound 24] = 3.3%

====

System: L1210 lymphoblastic leukemia cells
Assay: Inhibition of L1210 tumor cell growth in vitro (Coulter counter)
Assay type: cell-based, Murine
Conditions: Mus musculus, L1210, 96 h; 4 days
Procedure: Cells were plated at an initial density of 1×10^4 cells/0.5 ml/well in RPMI 1640 medium, containing 7.5% fortified bovine calf serum, and grown at 37° C. for 4 days in a humidified incubator in 5% CO2 in air. Cells were incubated in the presence or absence (^•, control) of 50 μM 3A (▪), 2D & 2E (□),3D & 3E (▴), 2B & 2C (Δ) 2A (♦), 3B & 3C (⋄), or 10 μM CPT (∘) and their density was monitored in triplicate every 24 h using a Coulter counter. Cells numbers are plotted on a logarithmic scale. […]
metric_name: IC50

O=c1oc(-c2cccnc2)cc2c1C=C1CCCCC1O2 (stereo not shown) = 1100 nM

The measured values listed here are drawn from patent US6384045B1.
